The reported numbers originate from PubChem BioAssay (NCI).

Catalogue of TGI readings, one per entry.
tested on: NCI/ADR-RES ovarian; experiment: NCI tumour cell line growth inhibition, 48 h

Example cases with answers are listed next.
CCCc1c(O)c2ccccc2[nH]c1=O: > 100 µM
ClCc1nnc2n1-c1ccc(Cl)cc1SC2: 4.76 µM
CCCCN(CCCC)C1(c2cc3ccccc3s2)CCCCC1: 34 µM
CC(=O)c1cc2sc3ccccc3c2[nH]1: > 100 µM
CC[C@@]1(O)C(=O)OCc2c1cc1n(c2=O)Cc2cc3c(OC)cccc3nc2-1: > 100 µM
Cc1ccc(C2=NN=C3C(c4ccccc4)=Nc4ccccc4N3C2)cc1: > 100 µM
COc1ccc(NS(=O)(=O)c2ccc3ncn(NS(=O)(=O)c4ccc(I)cc4)c(=O)c3c2)cc1: > 100 µM
NNC(=S)N/N=C/c1ccccn1: > 100 µM

Query :: I'd like to know its TGI. The molecule in question is `Cc1cc(C)c2c(=O)cc(-c3ccc(F)cc3)[nH]c2n1`
Result :: > 100 µM

Query :: I'd like to know its TGI. The molecule in question is `CO[C@@H]1[C@H](N(C)C(=O)c2ccccc2)C[C@@H]2O[C@]1(C)n1c3ccccc3c3c4c(c5c6ccccc6n2c5c31)C(=O)NC4=O`
Result :: > 100 µM

Query :: I'd like to know its TGI. The molecule in question is `CC(=O)NS(=O)(=O)c1ccc(-n2nc(-c3ccccc3)cc2-c2cc(O)ccc2O)cc1`
Result :: > 100 µM

###

test system: T-47D breast; test: NCI tumour cell line growth inhibition, 48 h
READOUT_NAME: TGI (µM)
All answers are understood in µM, so give the number only.

Example cases with answers are listed next.
CC1(C)CCCCC1/C=C/C(CC(O)(C(F)(F)F)C(F)(F)F)=N\Nc1ccc([N+](=O)[O-])cc1[N+](=O)[O-] (stereo not drawn): 2.99
N[C@@H]1c2c(Br)sc(Br)c2C(=O)[C@H]1Br: 84

Switching to the query record.
Query :: I'd like to know its TGI. The compound in question is `O=C(NCCCNc1cc(-c2cn(-c3ccccc3)nc2-c2cccc(O)c2)ccn1)c1ccc(F)cc1`
Result :: 5.11

###

tested on: COLO 205 colon; assay: NCI tumour cell line growth inhibition, 48 h
READOUT_NAME: TGI (µM)
All answers are understood in µM, so give the number only.

OC1CCC(COC(c2ccccc2)(c2ccccc2)c2ccccc2)O1 (stereo not given): 30.8
N#C/C(=C\c1ccc([N+](=O)[O-])cc1)n1nnc2cc(F)c(F)cc21: 3.93
CC(C)(C)OC(=O)CCC1NC(=O)[C@@H]2Cc3c([nH]c4ccccc34)C(c3ccccc3)N2C1=O (stereo not given in full): 43.7

Query :: I'd like to know its TGI. The compound in question is `CCOC(=O)c1sc2c(c1OC(=O)c1ccc(Cl)cc1Cl)c(=O)n(-c1ccccc1)c(=S)n2-c1ccccc1`
Result :: 35.4

###

tested on: NCI-H23 lung; assay: NCI tumour cell line growth inhibition, 48 h
Catalogue of TGI readings, one per entry.

COc1ccc(-c2cc(=O)c3cc4c(cc3[nH]2)OCO4)c(OC)c1: > 100 µM
Cc1cc(C)c2c(=O)cc(-c3ccc(F)cc3)[nH]c2n1: > 100 µM
N#CC(NNC(=O)Cc1ccccc1)c1ccc(O)cc1 (stereo unspecified): > 100 µM
NS(=O)(=O)c1ccc(N=Nc2c(O)[nH]c3cccc(CCc4ccncc4)c23)cc1: > 25 µM
CC(Cc1ccc(O)cn1)(NC(=O)c1ccccc1)C(=O)O (stereo unspecified): > 100 µM

Query :: I'd like to know its TGI. The compound in question is `N=C(N)SCCSC(=N)N`
Result :: > 100 µM
